- Test system: carrageenan induced paw edema
- ASSAY NOTES: Anti-inflammatory activity: acute carrageenan induced paw edema in rats
- Type: in vivo, Wister rats
- MEASUREMENT CONDITIONS: 1 h; 10 mg kg^−1 indomethacin mol equivalent, intraperitoneally
- Procedure: The anti-inflammatory activity of the tested compounds was determined in vivo by the acute carrageenan induced paw edema standard method in rats. See, Naumov, et al., Bioorg. Med. Chem. Lett, 25: 2314-2320 (2015), Tiwari, et al., Org. Biomol. […] Adult Wister rats of either sex (pregnant female animals were excluded) weighing 120-150 g were divided into 18 groups of 6 animals each. […] Data were collected, checked, revised and analyzed. […]
Measured % inhibition of edema accompanies every entry in the list below.
Express the result in % but write the number alone.

Recorded % inhibition of edema, per entry:
{"MOL SMILES": "COc1cc(/C=C/C(=O)CC(=O)/C=C/c2ccc(OC(=O)[C@H](Cc3ccccc3)NC(=O)OCC3c4ccccc4-c4ccccc43)c(OC)c2)ccc1OC(=O)[C@H](Cc1ccccc1)NC(=O)OCC1c2ccccc2-c2ccccc21", "REPORTED PROPERTY": "% inhibition of edema", "READOUT NUMBER": 10}
{"MOL SMILES": "COc1cc(/C=C/C(=O)CC(=O)/C=C/c2ccc(OC(=O)[C@@H](NC(=O)OCc3ccccc3)C(C)C)c(OC)c2)ccc1OC(=O)[C@@H](NC(=O)OCc1ccccc1)C(C)C", "REPORTED PROPERTY": "% inhibition of edema", "READOUT NUMBER": 51}
{"MOL SMILES": "COc1cc(/C=C/C(=O)CC(=O)/C=C/c2ccc(OC(=O)[C@@H](N)CCC(N)=O)c(OC)c2)ccc1OC(=O)[C@@H](N)CCC(N)=O.Cl.Cl", "REPORTED PROPERTY": "% inhibition of edema", "READOUT NUMBER": 46}
{"MOL SMILES": "COc1cc(/C=C/C(=O)CC(=O)/C=C/c2ccc(OC(=O)CN)c(OC)c2)ccc1OC(=O)CN.Cl.Cl", "REPORTED PROPERTY": "% inhibition of edema", "READOUT NUMBER": 66}
{"MOL SMILES": "COc1cc(/C=C/C(=O)CC(=O)/C=C/c2ccc(O)c(OC)c2)ccc1O", "REPORTED PROPERTY": "% inhibition of edema", "READOUT NUMBER": 12}

In: Which % inhibition of edema value is on record for COc1cc(/C=C/C(=O)CC(=O)/C=C/c2ccc(OC(=O)[C@H](CCC(N)=O)NC(=O)OCc3ccccc3)c(OC)c2)ccc1OC(=O)[C@H](CCC(N)=O)NC(=O)OCc1ccccc1 ?
Out: 51

In: Which % inhibition of edema value is on record for COc1cc(/C=C/C(=O)CC(=O)/C=C/c2ccc(OC(=O)CNC(=O)OC(C)(C)C)c(OC)c2)ccc1OC(=O)CNC(=O)OC(C)(C)C ?
Out: 43

In: Which % inhibition of edema value is on record for COc1cc(/C=C/C(=O)CC(=O)/C=C/c2ccc(OC(=O)[C@@H](N)CCSC)c(OC)c2)ccc1OC(=O)[C@@H](N)CCSC.Cl.Cl ?
Out: 64

In: Which % inhibition of edema value is on record for COc1cc(/C=C/C(=O)CC(=O)/C=C/c2ccc(OC(=O)[C@H](C)NC(=O)OC(C)(C)C)c(OC)c2)ccc1OC(=O)[C@H](C)NC(=O)OC(C)(C)C ?
Out: 6

In: Which % inhibition of edema value is on record for COc1cc(/C=C/C(=O)CC(=O)/C=C/c2ccc(OC(=O)[C@H](CC(C)C)NC(=O)OCC3c4ccccc4-c4ccccc43)c(OC)c2)ccc1OC(=O)[C@H](CC(C)C)NC(=O)OCC1c2ccccc2-c2ccccc21 ?
Out: 40

In: Which % inhibition of edema value is on record for COc1cc(/C=C/C(=O)CC(=O)/C=C/c2ccc(OC(=O)[C@H](CCC(N)=O)NC(=O)OC(C)(C)C)c(OC)c2)ccc1OC(=O)[C@H](CCC(N)=O)NC(=O)OC(C)(C)C ?
Out: 10
